Origin of the recorded values: paper PMC8236845

Target: binding of recombinant, trimeric SARS-CoV-2 spike protein to recombinant human ACE2 (Severe acute respiratory syndrome coronavirus 2, UniProt P0DTC2, K986P/R682G/R683S/R685S/V987P)
Experiment: biochemical
Set-up: species or system SARS-CoV-2 / human
assay.metric: inhibition of spike-ACE2 binding in the screen

mol.smiles	reading
CC[C@@]1(O)C(=O)OCc2c1cc1n(c2=O)Cc2c-1nc1ccccc1c2CCNC(C)C	did not inhibit
CCc1c2c(nc3ccc(OC(=O)N4CCC(N5CCCCC5)CC4)cc13)-c1cc3c(c(=O)n1C2)COC(=O)[C@]3(O)CC	did not inhibit
CC[C@@]1(O)C(=O)OCc2c1cc1n(c2=O)Cc2cc3c(CN(C)C)c(O)ccc3nc2-1	did not inhibit

###

Listed here are molecules together with their documented % Inhibition.
Target: binding of recombinant, trimeric SARS-CoV-2 spike protein to recombinant human ACE2 (Severe acute respiratory syndrome coronavirus 2, UniProt P0DTC2, K986P/R682G/R683S/R685S/V987P)
Assay: biochemical
Parameters: species or system SARS-CoV-2 / human
Structures can show the parent of a compound that is named as a salt.
assay.metric: % Inhibition (%)

molecule	unit.name	reading
COC(=O)N[C@H](C(=O)N1CCC[C@H]1C(=O)Nc1ccc([C@@H]2CC[C@@H](c3ccc(NC(=O)[C@@H]4CCCN4C(=O)[C@@H](NC(=O)OC)C(C)C)cc3)N2c2ccc(C(C)(C)C)cc2)cc1)C(C)C [Ombitasvir (ABT-267), Ombitasvir]	%	92
CCOC(=O)c1c(CSc2ccccc2)n(C)c2cc(Br)c(O)c(CN(C)C)c12.Cl [Arbidol HCl]	%	95
O=C(O)CCCC[C@@H]1SC[C@@H]2NC(=O)N[C@@H]21 [Biotin (Vitamin B7), Biotin]	%	91
CO[C@H]1C[C@H](O[C@@H]2/C(C)=C/C[C@@H]3C[C@@H](C[C@]4(CC[C@H](C)[C@@H](C5CCCCC5)O4)O3)OC(=O)[C@@H]3C=C(C)/C(=N/O)[C@H]4OC/C(=C\C=C\[C@@H]2C)[C@]43O)O[C@@H](C)[C@@H]1O [Selamectin]	%	97
COC(=O)N[C@H](C(=O)N1CCC[C@H]1c1nc(-c2ccc(-c3ccc(-c4c[nH]c([C@@H]5CCCN5C(=O)[C@@H](NC(=O)OC)C(C)C)n4)cc3)cc2)c[nH]1)C(C)C [Daclatasvir]	%	99
Cc1cn(-c2cc(NC(=O)c3ccc(C)c(Nc4nccc(-c5cccnc5)n4)c3)cc(C(F)(F)F)c2)cn1.Cl [Nilotinib HCl, Nilotinib Hydrochloride]	%	99
O=C(NC1CCN(CCCCC2(C(=O)NCC(F)(F)F)c3ccccc3-c3ccccc32)CC1)c1ccccc1-c1ccc(C(F)(F)F)cc1 [Lomitapide Mesylate]	%	93
COc1ccc2cc1Oc1ccc(cc1)C[C@H]1c3c(cc4c(c3Oc3cc5c(cc3OC)CCN(C)[C@@H]5C2)OCO4)CCN1C [Cepharanthine]	%	94
CON=C(C(=O)NC1C(=O)N2C(C(=O)OCOC(=O)C(C)(C)C)=C(C)CSC12)c1csc(N)n1 (stereo not drawn) [Cefetamet Pivoxil Hydrochloride]	%	94
C=CC(=O)Nc1cccc(Oc2nc(Nc3ccc(N4CCN(C)CC4)cc3)nc3ccsc23)c1 [Olmutinib]	%	98
COc1cc(-c2coc3cc4c(c(OC)c3c2=O)OCO4)cc(OC)c1OC [Irisflorentin]	%	97
CCOc1cc([C@@H](CS(C)(=O)=O)N2C(=O)c3cccc(NC(C)=O)c3C2=O)ccc1OC [Apremilast (CC-10004), Apremilast]	%	96
CCN(CC)Cc1cc(Nc2ccnc3cc(Cl)ccc23)ccc1O [Amodiaquine hydrochloride]	%	90
COc1ccc(CN=c2[nH]c(N3CCC[C@H]3CO)ncc2C(=O)NCc2ncccn2)cc1Cl [Avanafil]	%	99
C[C@@H](O[C@H]1OCCN(Cc2n[nH]c(=O)[nH]2)[C@H]1c1ccc(F)cc1)c1cc(C(F)(F)F)cc(C(F)(F)F)c1 [Aprepitant]	%	94
COC[C@H]1C[C@@H](c2nc(-c3ccc4c(c3)COc3cc5c(ccc6nc([C@@H]7CC[C@H](C)N7C(=O)[C@@H](NC(=O)OC)C(C)C)[nH]c65)cc3-4)c[nH]2)N(C(=O)[C@H](NC(=O)OC)c2ccccc2)C1 [Velpatasvir]	%	93
COC(=O)N[C@H](C(=O)N1CCC[C@H]1c1nc(-c2ccc(-c3ccc(-c4c[nH]c([C@@H]5CCCN5C(=O)[C@@H](NC(=O)OC)C(C)C)n4)cc3)cc2)c[nH]1)C(C)C [Daclatasvir Dihydrochloride]	%	97
CC[C@@]1(O)C(=O)OCc2c1cc1n(c2=O)Cc2cc3cc(O)ccc3nc2-1 [Hydroxycamptothecin]	%	99
